Catalogue of variants with associated screen value
B1: PEX5 peptide 108-123 (Peroxisomal targeting signal 1 receptor), 16-mer library wild type / PEX14 Pex14 (PEX14 PEX14, residues 16-84) (parent)
chain 1: GVADLALSENWAQEFL
chain 2: TPGSENVLPREPLIATAVKFLQNSRVRQSPLATRRAFLKKKGLTDEEIDMAFQQSGTAADEPSSLGPAT

Variants of: B1
PROTOCOL: proteomic peptide phage display deep mutational scan (ProP-PD DMS): M13 P8 16-mer library selected against immobilised GST-tagged bait for four days (rounds), NGS of the eluted pools per day and pseudo-replica
CONDITION SET: with PEX14 Pex14 (PEX14 PEX14, residues 16-84); bait immobilised on MaxiSorp plates (10 µg), library pre-cleared on GST, 2 h binding at 4 °C, five washes; one round per day, days 1-4; value from days 2 and 3; scale: average fractional NGS count over selection days 2 and 3
READOUT: screen value

chain 1 E14S ... 0.00161
chain 1 A12T ... 0.000373
chain 1 L16I ... 0
chain 1 Q13W ... 0.000116
chain 1 N10F ... 0.000356
chain 1 E14R ... 0.00542
chain 1 Q13F ... 0
chain 1 N10T ... 0.000176
chain 1 L5V ... 0.00065
chain 1 L16P ... 0.000186
chain 1 S8Y ... 0.0012
chain 1 L7V ... 0.000339
chain 1 A6V ... 0
chain 1 E14V ... 0.000334
chain 1 A12R ... 0
chain 1 A12D ... 0
chain 1 E14Q ... 0.00136
chain 1 E9D ... 0.000711
chain 1 L5W ... 0.000435
chain 1 A12W ... 6.63e-05
chain 1 A6L ... 0.000211
chain 1 E14F ... 0.000333
